Numbers sourced from patent US20260209316A1.

Field: EC50. Provide a value for each of the binders that follow.
Target: T1, full-length Sudan GP (GPFL) (Sudan virus (SUDV), UniProt Q7T9D9 33-650)
T1 construct: also called Sudan GPFL; GP(S)FL
T1 sequence: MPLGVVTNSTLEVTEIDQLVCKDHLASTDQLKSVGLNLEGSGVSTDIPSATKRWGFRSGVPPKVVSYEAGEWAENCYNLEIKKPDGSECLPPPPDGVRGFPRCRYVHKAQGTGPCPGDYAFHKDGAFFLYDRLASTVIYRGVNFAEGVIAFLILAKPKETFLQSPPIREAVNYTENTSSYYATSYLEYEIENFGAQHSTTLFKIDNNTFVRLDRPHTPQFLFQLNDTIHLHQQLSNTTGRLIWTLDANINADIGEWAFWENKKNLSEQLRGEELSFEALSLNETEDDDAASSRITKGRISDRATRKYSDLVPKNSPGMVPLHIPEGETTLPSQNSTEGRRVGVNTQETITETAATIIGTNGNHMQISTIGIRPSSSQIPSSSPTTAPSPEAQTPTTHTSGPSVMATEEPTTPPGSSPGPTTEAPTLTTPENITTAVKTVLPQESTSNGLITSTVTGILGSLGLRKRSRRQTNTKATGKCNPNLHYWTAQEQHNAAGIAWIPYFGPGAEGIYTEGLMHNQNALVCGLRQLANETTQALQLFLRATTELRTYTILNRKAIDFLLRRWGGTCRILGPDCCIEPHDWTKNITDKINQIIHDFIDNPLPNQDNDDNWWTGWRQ
Test: ELISA on coated GP
Answers are plain numbers, in µg/mL.

Ask: Quick one: give measured EC50 for antibody 354S (antibody, V domains shown) VH: QVQLVQSGAEVKKPGASVKVSCKASGYSFASYYIHWVRQAPGQGLEWMGIINPSGGTTSYAQKFQGRVTMTRDTSTSTVYMELSSLGSEDTAVYYCARIVDRVTIYLNGVDNYWGQGTLVTVSS VL: EIVMTQSPATLSVSPGERVTLSCRASQSVSSNLAWFQQTPGQAPRLLIYGASTRASGVPARFSGSGSGTEFTLTISSLQSEDFAVYYCLQYNNWPPGWKYGFGQGTKLEIK
Result: 0.0613

Ask: Quick one: give measured EC50 for antibody 573S (antibody, V domains shown) VH: EVQLVESGGGLVKPGGSLRLSCAASGFTFSSYTMNWVRQAPGKGLEWVSCIRSSSSDKYYADSVKGRFTISRDNTKNSLYLQMNSLRADDTAVYYCARDLGGANNRYYFDYGMDVWGQGTTVTVSS VL: EIVMTQSPATLSVSPGGRATLSCRASQSVYTNLAWYQQKPGQAPRLLIYDASTRATGIPARFSGSGSGTEFTLTISSLQCEDFAVYYCQHYNNWPLYTFGQGTKLEIK
Result: 0.221

Ask: Quick one: give measured EC50 for antibody 523S (antibody, V domains shown) VH: QVQLVQSGAELKKPGASVKVSCKASGYTFSDHYVHWVRQAPGQGLEWMGRINPNSGGTNYAQRFLGRVTMTRDASISTAYLDLSSLRSDDTAVYYCARSSSSWSGHYYYYMDVWGKGTTVTVSS VL: QSVLTQPPSVSAAPGQRVTISCSGSTSNIASNFVSWYQQLPGTAPKLLIYDNHKRPSGIPDRFSGSKSGTSATLGITGLQTGDEADYYCGTWDSSLSAGVFGGGTKVTVLG
Result: 0.371

// switching to the query binder
Ask: Quick one: give measured EC50 for antibody 541S (antibody, V domains shown) VH: QVQLVQSGAEVKKPGASVKVSCKASGYTFTNYAITWVRQAPGQGLEWMGWISAFNGQINYAQKFQGRVAMTTDTSTSTAYMELRSLRSDDTAVYYCARAPPMWFSGAKFDYWGQGTLVTVSS VL: QSVLTQPPSVSGTPGQRVTISCSGSSSNIGSNTVNWYQQLPGTAPKLLIYSNDQRPSGVPDRFSGSKSGTSASLAISGLRSEDEADYYCAAWDETLRRVFGGGTRLTVL
Result: 0.368
